# test-system: Phosphatidylinositol 4-kinase type 2-alpha (Homo sapiens) (UniProt Q9BTU6)
# Sequence (Q9BTU6 whole entry, looked up): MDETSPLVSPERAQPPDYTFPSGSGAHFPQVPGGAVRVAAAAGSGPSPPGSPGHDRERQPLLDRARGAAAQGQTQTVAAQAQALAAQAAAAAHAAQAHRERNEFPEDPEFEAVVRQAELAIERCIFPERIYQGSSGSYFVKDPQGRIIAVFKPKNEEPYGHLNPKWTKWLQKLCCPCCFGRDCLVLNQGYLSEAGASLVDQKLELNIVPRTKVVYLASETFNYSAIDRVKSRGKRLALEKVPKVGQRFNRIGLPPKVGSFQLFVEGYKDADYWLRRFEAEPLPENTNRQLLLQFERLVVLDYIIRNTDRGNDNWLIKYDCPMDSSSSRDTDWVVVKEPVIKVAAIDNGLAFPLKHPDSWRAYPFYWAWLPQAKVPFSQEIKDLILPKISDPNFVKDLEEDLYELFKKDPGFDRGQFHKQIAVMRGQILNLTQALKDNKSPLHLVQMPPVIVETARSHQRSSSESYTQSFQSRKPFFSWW
# assay-procedure: qHTS for small molecular inhibitors of PI4K2A;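 further: -100% = wells without enzyme as full effect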
# details: purified PI4K2A, ADP-Glo luminescence, 1 h; at 76.9 µM, stronger effect = lower value
The whole screen tested about 420,000 compounds, of which about 540 (0.13%) were called active. For the sample, actives were picked, then their nearest neighbours and some compounds at random.
measurement-type: activity change, negative = inhibition (%)
Express your answer in %, writing the number without its unit.

{"columns": ["molecule", "measurement-type", "reading-unit", "numeric-readout"],
 "data": [
  ["CCC(=O)Nc1ccccc1-c1nc2ccccc2n(CC(=O)Nc2ccc(C)c(C)c2)c1=O", "activity change, negative = inhibition", "%", 0.486],
  ["CCOc1ccc(NS(=O)(=O)c2ccc(N)cc2)nn1", "activity change, negative = inhibition", "%", -1.1],
  ["O=C1Cc2cc(S(=O)(=O)Nc3ccc(OC(F)(F)F)cc3)cc3c2N1CCC3", "activity change, negative = inhibition", "%", -2.44],
  ["CCOCCCn1c(SCC(=O)Nc2ccc(CC)cc2)nc2ccccc2c1=O", "activity change, negative = inhibition", "%", 2.57],
  ["NC1CCN(O)C1=O (stereo not given)", "activity change, negative = inhibition", "%", 0.196],
  ["C[C@@H]1CCC[C@H](C)N1CCCC(O)(c1ccccc1)c1ccccn1 (stereo not given in full)", "activity change, negative = inhibition", "%", -1.64]
]}

Find the recorded activity change, negative = inhibition belonging to `COc1cc(CNC(=O)c2cc3n(n2)CCCN(Cc2cccc(F)c2)C3=O)cc(OC)c1OC` and report it. -0.346

Now the molecule `O=C(Cn1ccc(=O)[nH]c1=O)Nc1ccc(C(=O)O)c(O)c1` -9.18

Then this molecule: `O=C(Nc1ccc(Br)cc1)c1ccc(Br)c(S(=O)(=O)NCc2ccccc2)c1` -0.252

Then `CCN1CCN(C(=O)N[C@@H](C(=O)N[C@@H]2C(=O)N3[C@@H]2SC(C)(C)[C@H]3C(=O)O)c2ccccc2)C(=O)C1=O` ? 2.58

----------
Reported activity change, negative = inhibition values are given for each entry in this list.
# test-system: Phosphatidylinositol 4-kinase type 2-alpha (Homo sapiens)
# assay-procedure: qHTS for small molecular inhibitors of PI4K2A;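 further: -100% = wells without enzyme as full effect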
# details: purified PI4K2A, ADP-Glo luminescence, 1 h; at 76.9 µM, stronger effect = lower value
The campaign covered roughly 420,000 compounds. About 540 (0.13%) were called active. What follows is part of a selection rich in actives, with near analogues and random picks from the rest.
Give just the number in %; leave the unit off.

{"columns": ["compound", "test-system", "reading-unit", "activity change, negative = inhibition"],
 "data": [
  ["CC1CC2C3CCC4=CC(=O)C=C[C@]4(C)[C@@]3(F)[C@@H](O)C[C@]2(C)[C@@]1(O)C(=O)CO (stereo not given in full)", "Phosphatidylinositol 4-kinase type 2-alpha (Homo sapiens)", "%", 2.22],
  ["Cc1ccc(C(=O)COC(=O)C(Cc2c[nH]c3ccccc23)NC(=O)c2ccc(Br)cc2)cc1 (stereo not given)", "Phosphatidylinositol 4-kinase type 2-alpha (Homo sapiens)", "%", 1.44],
  ["CCOc1ccc(NC(=O)Cn2c(=O)n(CCCC(=O)NCc3ccc4c(c3)OCO4)c(=O)c3ccccc32)cc1", "Phosphatidylinositol 4-kinase type 2-alpha (Homo sapiens)", "%", -1.29],
  ["CCOC(=O)c1cc2c(=O)n3ccccc3nc2n(Cc2ccco2)c1=NC(=O)c1ccc(F)cc1", "Phosphatidylinositol 4-kinase type 2-alpha (Homo sapiens)", "%", -8.37],
  ["COc1ccccc1CNC(=O)CCn1c(=O)c2ccccc2n(CC(=O)Nc2ccc(Br)cc2F)c1=O", "Phosphatidylinositol 4-kinase type 2-alpha (Homo sapiens)", "%", 2.55],
  ["CCOc1ccc(NC(=O)N(CC(C)C)CC(C)C)cc1", "Phosphatidylinositol 4-kinase type 2-alpha (Homo sapiens)", "%", 7.41]
]}

I would be grateful if you could share the reported activity change, negative = inhibition for `COc1ccc(-c2nnc(SCC(=O)Nc3ccc(C(C)C)cc3)nc2-c2ccc(OC)c(OC)c2)cc1OC` . 0.608

----------
# test-system: Phosphatidylinositol 4-kinase type 2-alpha (Homo sapiens)
# assay-procedure: qHTS for small molecular inhibitors of PI4K2A;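 further: -100% = wells without enzyme as full effect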
# details: purified PI4K2A, ADP-Glo luminescence, 1 h; at 76.9 µM
Among all 420,000 compounds or so, about 540 (0.13%) were called active. Cut-off read from the data, not from the text of the source: active = activity change below about -50%; inconclusive = mostly about -30% to -49%; inactive = weaker than that. This is one part of a sample in which actives are shown more often than they occur.
Select the correct class. Options are active, inactive and nothing else.

Use the examples below as a reference point.
{"columns": ["compound-structure", "label-value"],
 "data": [
  ["CC(C)(C)OC(=O)N1CCC(c2c(C(=O)Nc3ccc4c(c3)OCO4)cnn2-c2ccccc2)CC1", "inactive"],
  ["CCN(CCCNC(=O)c1ccc(Sc2ccc(C)cc2)c(NC(C)=O)c1)c1cccc(C)c1", "inactive"],
  ["CCOc1ccc(NC(=O)Cn2cc(C(=O)c3ccc(C)cc3)c(=O)c3cc4c(cc32)OCCO4)cc1", "inactive"],
  ["CS(=O)(=O)N1CCc2cc(C(=O)Nc3ccccc3)ccc21", "inactive"]
]}

What is the recorded call for this compound in the test? `O=C1COc2ccc(C(=O)COC(=O)c3ccccc3Cl)cc2N1` inactive

Please give the result for `O=C(COC(=O)c1ccccc1)c1ccc2c(c1)OCCO2` too. active

Field entry: `CSc1ccccc1-c1nnc(NC(=O)c2ccc3c(c2)OCCO3)o1` inactive

Check `O=C(OCc1ccccc1)c1ccc(O)cc1` too. inactive

Moving on to `COc1cccc(C(=O)NC(=O)Nc2ccc(-c3cc(C(F)(F)F)nn3-c3ccccc3)cc2)c1` inactive

Proceed to `COc1cccc(C(=O)Nc2ccc(-c3cc(C(F)(F)F)nn3-c3ccccc3)cc2)c1` inactive

`Cn1c(=O)c2c(-c3ccccc3Br)n(Cc3ccccc3)cc2n(C)c1=O` , same question. inactive

----------
# test-system: Phosphatidylinositol 4-kinase type 2-alpha (Homo sapiens)
# assay-procedure: qHTS for small molecular inhibitors of PI4K2A;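 further: -100% = wells without enzyme as full effect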
# details: purified PI4K2A, ADP-Glo luminescence, 1 h; at 76.9 µM, stronger effect = lower value
The campaign covered roughly 420,000 compounds. About 540 (0.13%) were called active. The list comes from a sample in which actives are over-represented; it also holds close analogues and randomly drawn compounds.
measurement-type: activity change, negative = inhibition (%)
Just the number please, in %, no unit attached.

Past entries and their recorded results:
{"columns": ["compound-structure", "test-system", "numeric-readout"],
 "data": [
  ["Cc1ccc(-n2nc(C)c(C(=O)O)c2-n2cccc2)cc1", "Phosphatidylinositol 4-kinase type 2-alpha (Homo sapiens)", 3.8],
  ["Cc1nnc(C(=O)NC(C)(C)c2nc(C(=O)NCc3ccc(F)cc3)c(O)c(=O)n2C)o1", "Phosphatidylinositol 4-kinase type 2-alpha (Homo sapiens)", -1.36],
  ["CN(C)c1cccc(C(=O)Nc2nc3ccc(S(=O)(=O)NC(C)(C)C)cc3s2)c1", "Phosphatidylinositol 4-kinase type 2-alpha (Homo sapiens)", 0.225],
  ["COc1cccc(-c2cc(C(=O)Nc3ccc(C)cc3)[nH]n2)c1", "Phosphatidylinositol 4-kinase type 2-alpha (Homo sapiens)", -3.12],
  ["CCCCCn1c(=O)[nH]c2cc(C(=O)NCCN(C)CCCC)ccc2c1=O", "Phosphatidylinositol 4-kinase type 2-alpha (Homo sapiens)", 3.6]
]}

I'd like to know its activity change, negative = inhibition. The compound in question is `Cc1cc(C)cc(OCC(=O)Nc2nc(-c3ccc(F)cc3)ns2)c1` -6.03

Repeat with `Cc1cc(C)cc(-n2ccnc2SCC(=O)Nc2nc3ccccc3s2)c1` -3.54

What would you report for `CC(=O)c1ccc(NC(=O)c2nc3nc(C)cc(C(F)F)n3n2)cc1` ? 0.438

And for `O=C(c1ccc2c(c1)N(Cc1ccccc1)C(=O)c1ccccc1S2(=O)=O)N1CCC(Cc2ccccc2)CC1` ? -3.09

Another compound to check: `COc1ccc(-c2onc(C)c2C)cc1S(=O)(=O)NCCc1ccccc1` 0.384

----------
# test-system: Phosphatidylinositol 4-kinase type 2-alpha (Homo sapiens)
# assay-procedure: qHTS for small molecular inhibitors of PI4K2A;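 further: -100% = wells without enzyme as full effect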
# details: purified PI4K2A, ADP-Glo luminescence, 1 h; at 76.9 µM, stronger effect = lower value
# Protocol: The phosphatidylinositol 4-phosphate (PI4P) is emerging as a key regulator of lipid transfer in ER-membrane contact sites. […] For the robotic screening, the ADP-Glo assay using the ADP-Glotrade mark Kinase Assay kit from Promega was miniaturized and optimized on 1536-well white solid bottom plates (Greiner Bio-one). […] The resulting luminescence signal was measured on Viewlux plate reader (PerkinElmer). […]
The whole screen tested about 420,000 compounds, of which about 540 (0.13%) were called active. Shown is part of a subset that was picked to be rich in actives.
This section presents molecules with their documented activity change, negative = inhibition values.
Your answer should be a plain number; it is taken to be in %.

Field: example entries. Status: answers known.
{"columns": ["molecule", "activity change, negative = inhibition (%)"],
 "data": [
  ["COc1ccc(C2=NC3(CCCCC3)N(CC(=O)Nc3ccc(C(C)C)cc3)C2=O)cc1", -3.85],
  ["NNC(=O)c1cnn(-c2ccccc2)c1C(F)(F)F", 3.06],
  ["Cc1cc(C)c(NC(=O)CN2C(=O)c3cccnc3Oc3ccc(Cl)cc32)c(C)c1", -3.1],
  ["O=C1CSC(=S)N1/N=C/c1ccc(O)c([N+](=O)[O-])c1", -62.1]
]}

Name the recorded activity change, negative = inhibition for COc1ccc(C(=O)NCC(c2ccc(N(C)C)cc2)N2CCc3ccccc32)c(OC)c1 (stereo not given) . 0.413
